Each recorded value in this set is attributed to PubChem BioAssay (NCI).

tested on: NCI-H460 lung; assay: NCI tumour cell line growth inhibition, 48 h
Kindly state TGI for each of the entries shown.

Before answering, review these 3 worked examples.
{"columns": ["Compound", "Measurement Target", "TGI"],
 "data": [
  ["CCOC(=O)C1C(c2ccc3c(c2)OCO3)c2c([nH][nH]c2=O)CC1(O)OCC (stereo unspecified)", "NCI-H460 lung", "> 100 µM"],
  ["CCOC(=O)c1ccc(N=Cc2ccc(N(CCC#N)CCC#N)cc2)cc1", "NCI-H460 lung", "> 100 µM"],
  ["CC[N-]c1nnnn1CC.[Au+].c1ccc([PH+](c2ccccc2)c2ccccc2)cc1", "NCI-H460 lung", "> 20.7 µM"]
]}

The following compounds each have a reported value; give each one's TGI.
1. Cn1cc(C2=C(n3ccc4ccccc43)C(=O)NC2=O)c2ccccc21
2. CC1(CO)OC(n2cnc3c(N)ncnc32)C(O)C1O (stereo unspecified)
3. O=[N+]([O-])/C(C(Cl)=C(Cl)Cl)=C(\Nc1cccc2ccccc12)n1nnc2ccccc21
4. C=C1C(=O)C23CC1CCC2C12CO[C@H](O)[C@H]1C(C)(C)[C@H](OC(C)=O)C[C@H]2OC3=O (stereo partly specified)
5. CCOC(=O)c1ccc(O)cc1
6. CC(=O)Nc1ccc(C(=O)NN2C(=O)C(Cl)C2c2cc(Br)cc(Br)c2O)cc1 (stereo unspecified)
7. COC(=O)C(/C(=N/NC(N)=O)C(=O)Nc1c(C)cccc1C(C)(C)C)c1nc2ccc(Cl)cc2[nH]c1=O (stereo unspecified)
8. COc1ccc(-c2onc(-c3ccc([N+](=O)[O-])cc3)c2C2=NCCCN2)cc1

1. > 25 µM
2. > 100 µM
3. > 100 µM
4. > 100 µM
5. > 100 µM
6. > 100 µM
7. > 100 µM
8. > 100 µM

The following compounds each have a reported value; give each one's TGI.
1. COC(=O)C1(CCC(=O)N(C)c2ccccc2)NNC2C(=O)N(c3ccccc3)C(=O)C21 (stereo unspecified)
2. CC1(C)OCC[C@@H]1[Si](C)(C)C
3. NC(=O)/C(=N\NC(=O)c1cc2ccccc2cc1O)C1C(=O)N(c2ccccc2)N=C1N (stereo unspecified)
4. O=C1C=CC2(NN=C(c3ccccc3)N2c2ccccc2)c2cccc(O)c21 (stereo unspecified)
5. CC(=O)/C(=C\c1ccccc1)C(=O)Nc1ccccc1
6. O=C1C(c2ccccc2)=[N+]([O-])c2ccc(Cl)cc21
7. COc1ccc(NC(=S)N/N=C(\c2ccccc2)c2ccccn2)cc1

1. > 10 µM
2. > 100 µM
3. > 100 µM
4. 10.2 µM
5. > 100 µM
6. > 100 µM
7. 6.47 µM

###

Kindly state TGI for each of the entries shown.
tested on: HCT-15 colon; assay: NCI tumour cell line growth inhibition, 48 h
Where a SMILES comes first, the peptide text is derived from it.
Give bare numbers, in µM.

Before answering, review these 3 worked examples.
{"columns": ["Compound", "TGI / µM"],
 "data": [
  ["CCC(C)C1NC(=O)C(CCCCN)NC(=O)C(CCCCN)NC(=O)C(CC(C)C)NC(=O)C(CCCCN)NC(=O)C(C(C)CC)NC(=O)C(C(C)C)NC(=O)C(C(C)CC)NC(=O)C(CCCCN)NC(=O)C(CCCCN)NC(=O)C(C)NC(=O)C(CCCCN)NC(=O)C(CC(C)C)NC1=O (centres undefined) (cyclo(AKKIVIKLKKILK); configuration not given here)", 3.27],
  ["Cc1ccc(I)cc1N=C=S", 34.8],
  ["CN(C)[C@@H]1C(=O)C(C(=O)NCN2CCN(C(=N)N=C(N)N)CC2)=C(O)[C@@]2(O)C(=O)C3=C(O)c4c(O)cccc4[C@@](C)(O)[C@H]3C[C@@H]12", 12.2]
]}

Shifting focus to the compound that follows.
Param item = COc1ccc2c(c1OC)C(=O)OC2C1c2c(c(N)c3c(c2OC)OCO3)CCN1C (centres undefined) ; retrieve measured TGI.
8.38

###

tested on: DLD-1 colon; assay: NCI tumour cell line growth inhibition, 48 h
Quantity Name: TGI

Before answering, review these 5 worked examples.
{"columns": ["Molecule", "TGI"],
 "data": [
  ["N#CC(C(=O)C(N)=O)c1ccccc1Cl (centres undefined)", "> 100 µM"],
  ["C[C@]12CCC(=O)C(O)=C1CCC2=O", "> 100 µM"],
  ["CC1(CO)OC(n2cnc3c(N)ncnc32)C(O)C1O (centres undefined)", "> 100 µM"],
  ["COC(=O)[C@]1(C)CCC[C@]2(C)C3CC4OOC3(C=C4C(C)(C)O)CCC21 (some centres undefined)", "> 100 µM"],
  ["CCOC(=O)c1ccc(O)cc1", "> 100 µM"]
]}

The following molecules each have a reported value; give each one's TGI.
1. N#CNC(=NCc1ccccc1)NCc1ccccc1
2. N/N=c1\c2ccccc2c2ccc3c4ccccc4/c(=N\N)c3c12
3. COC(=O)C(/C(=N/NC(N)=O)C(=O)Nc1c(C)cccc1C(C)(C)C)c1nc2ccc(Cl)cc2[nH]c1=O (centres undefined)

1: > 71 µM; 2: > 100 µM; 3: > 100 µM

Param item = CCOC(=O)C(/C(=N/NC(=O)OC)C(=O)Nc1ccc(C(C)=O)cc1)c1cnc2ccccc2n1 (centres undefined) ; retrieve measured TGI.
> 100 µM

###

system: UACC-62 melanoma; experiment: NCI tumour cell line growth inhibition, 48 h
Quantity Name: TGI

{"columns": ["Compound", "Measurement Target", "TGI"],
 "data": [
  ["COc1ccc(-c2onc(-c3ccc([N+](=O)[O-])cc3)c2C2=NCCCN2)cc1", "UACC-62 melanoma", "> 100 µM"],
  ["O=C1C(c2ccccc2)=[N+]([O-])c2ccc(Cl)cc21", "UACC-62 melanoma", "35 µM"],
  ["CS(=O)(=O)Nc1ccc2c(c1)N(S(C)(=O)=O)CC2COS(C)(=O)=O (centres undefined)", "UACC-62 melanoma", "> 100 µM"]
]}

Param item = "Cc1cc(S(=O)(=O)N/C(=C(\C#N)C(=O)c2ccccc2)[n+]2ccc(N(C)C)cc2)c([S-])cc1Cl" ; retrieve measured TGI.
> 100 µM

###

system: OVCAR-5 ovarian; assay: NCI tumour cell line growth inhibition, 48 h
Quantity Name: TGI

Before answering, review these 5 worked examples.
{"columns": ["Compound", "Quantity Name", "Recorded Measurement"],
 "data": [
  ["O=C(NCCn1ccnn1)Nc1ccccc1", "TGI", "> 100 µM"],
  ["CN(C)CCNC(=O)C1COc2cc(-c3cc(=O)c4ccccc4o3)ccc2O1 (stereo not given)", "TGI", "> 100 µM"],
  ["S=C1Nc2cnc3ccccc3c2SC1c1ccccc1 (stereo not given)", "TGI", "> 100 µM"],
  ["Cc1cc(S(=O)(=O)N/C(=C(\\C#N)C(=O)c2ccccc2)[n+]2ccc(N(C)C)cc2)c([S-])cc1Cl", "TGI", "> 100 µM"],
  ["O=c1cc(-c2ccccc2)[nH]c2ccc(N3CCCC3)cc12", "TGI", "> 100 µM"]
]}

The following compounds each have a reported value; give each one's TGI.
1. CC(C)(C)OC(=O)N(CCCN)CCCCN
2. Cc1ncc([N+](=O)[O-])n1CCNC(=O)CCC(=O)NCCCn1ccnc1[N+](=O)[O-]

1. > 100 µM
2. > 100 µM

The following compounds each have a reported value; give each one's TGI.
1. COc1ccc(C2=Cc3nc2c(-c2ccccc2)c2ccc([nH]2)c(-c2ccccc2)c2nc(c(-c4ccccc4)c4ccc([nH]4)c3-c3ccccc3)C=C2)cc1
2. COc1cc2nccc(Oc3ccc(NC(=O)C4(C(=O)Nc5ccc(F)cc5)CC4)cc3)c2cc1OC(=O)c1ccc(N)cc1

1. > 100 µM
2. > 100 µM

The following compounds each have a reported value; give each one's TGI.
1. O=C(Nc1ccccc1C(=O)N/N=C(\c1ccccc1)c1ccccn1)c1ccccc1
2. COC(=O)[C@]12CC[C@@H](C)[C@H](C)[C@@H]1C1=CC[C@@H]3[C@@]4(C)C[C@@H](OC(C)=O)[C@H](O)[C@@](C)(CO)[C@@H]4[C@H](O)C[C@@]3(C)[C@]1(C)CC2
3. O=C(Nc1ccccc1SC(/C=C/NNC1=NC(c2ccccc2)C(c2ccccc2)=NN1)c1ccccc1)c1ccc(Cl)cc1Cl (stereo not given)
4. CS(=O)(=O)Nc1ccc2c(c1)N(S(C)(=O)=O)CC2COS(C)(=O)=O (stereo not given)
5. COc1ccc(N(CN2C(=O)CCC2OC)C(C)=O)cc1 (stereo not given)
6. c1ccc(P2c3ccccc3Nc3ccccc32)cc1
7. CN(C)CCNc1ccc2nnn3c4ccc(O)cc4c(=O)c1c23

> 100 µM
27.7 µM
> 100 µM
> 100 µM
> 100 µM
> 100 µM
19.9 µM

The following compounds each have a reported value; give each one's TGI.
1. COc1ccc(N)c(C(=O)CCNC(C)=O)c1
2. COc1cc(Br)c(CC2C3=C(CCN2C(=O)C2CCC2)CC2(CC3)OCCO2)cc1O (stereo not given)
3. CCCCCCC(O)(c1ccc(F)cc1)C(CN1CCOCC1)c1ccccc1 (stereo not given)
4. CC(CO)CCNc1ncnc2c1ncn2CCC(=O)O (stereo not given)

> 100 µM
> 100 µM
26.8 µM
> 100 µM
